Biological target: human mAChR M1 (Homo sapiens, UniProt P11229)
Sequence (P11229 whole entry): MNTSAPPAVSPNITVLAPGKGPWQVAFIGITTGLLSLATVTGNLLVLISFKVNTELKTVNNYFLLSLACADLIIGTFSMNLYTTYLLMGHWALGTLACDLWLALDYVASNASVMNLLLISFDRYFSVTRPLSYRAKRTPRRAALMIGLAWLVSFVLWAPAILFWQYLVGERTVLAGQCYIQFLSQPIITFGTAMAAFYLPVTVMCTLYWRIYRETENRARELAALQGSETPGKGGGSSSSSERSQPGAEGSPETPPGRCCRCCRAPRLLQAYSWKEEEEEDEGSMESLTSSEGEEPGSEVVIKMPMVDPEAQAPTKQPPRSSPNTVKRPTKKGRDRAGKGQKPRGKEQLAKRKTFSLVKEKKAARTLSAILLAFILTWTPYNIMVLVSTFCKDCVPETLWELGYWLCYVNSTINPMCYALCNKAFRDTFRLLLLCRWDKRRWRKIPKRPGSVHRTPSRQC
Experiment: mAChR M1 cell-based functional assay (calcium mobilization), agonist activity upon compound addition alone
Conditions: CHO-K1 cells expressing hM1; compound alone; relative to the maximum for acetylcholine
Experimental: Chinese hamster ovary (CHO-K1) cells stably expressing rat (r)M1 were purchased from the American Type Culture Collection and cultured according to their indicated protocol. […] Calcium flux was measured using the Functional Drug Screening System (FDSS) 6000 (Hamamatsu Corporation, Tokyo, Japan) as an increase in the fluorescent static ratio. […] Agonist activity was analyzed as a concentration-dependent increase in calcium mobilization upon compound addition. […]
metric name: Emax (%)
Provide the reading as a plain figure in %.

Cc1nc(-c2ccc(Cc3cc(C(=O)NC4CCOCC4)nc(-n4cccn4)c3)cc2)co1 :: 6
Cc1c(Cc2ccc(-c3ccn(C)n3)cc2)cc(C(=O)N[C@H]2CCOC[C@@H]2O)nc1-n1cccn1 :: 25

Consider the record given below.
Exercise: Report Emax under test system human mAChR M1 (Homo sapiens, UniProt P11229) for `Cc1c(Cc2ccc(-c3cnn(C)c3)nc2)cc(C(=O)N[C@H]2CCCC[C@@H]2O)nc1-n1cccn1` .
Key: 29
